Test system: SK-PN-DW (Other Solid Carcinomas);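 also: after 72 h of two-drug dosing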
experimentSummary: Bliss excess, mean over the matrix (fraction); higher = more synergy
metricName: Bliss excess

| molecule | targetSystem | metricName | observedMeasurement |
| --- | --- | --- | --- |
| CC1(C)CCC(CN2CCN(c3ccc(C(=O)NS(=O)(=O)c4ccc(NCC5CCOCC5)c([N+](=O)[O-])c4)c(Oc4cnc5[nH]ccc5c4)c3)CC2)=C(c2ccc(Cl)cc2)C1 [Venetoclax] + C[C@@H]1COCCN1C2=NC(=NC(=C2)C3(CC3)[S@](=N)(=O)C)C4=C5C=CNC5=NC=C4 [AZD6738] (first compound max 1 µM, 7x7, partner max 10 µM) | SK-PN-DW (Other Solid Carcinomas) | Bliss excess | -0.0045 |
| COc1cccc(OCCCN)c1-c1cc(Nc2cnc(C#N)cn2)n[nH]1 [Prexasertib] + C=CCn1c(=O)c2cnc(Nc3ccc(N4CCN(C)CC4)cc3)nc2n1-c1cccc(C(C)(C)O)n1 [AZD1775] (first compound max 1 µM, partner max 1 µM) | SK-PN-DW (Other Solid Carcinomas) | Bliss excess | 0.0025 |
| CCN(CCO)CCCOc1ccc2c(Nc3cc(CC(=O)Nc4cccc(F)c4)[nH]n3)ncnc2c1 [AZD2811] + C=CCn1c(=O)c2cnc(Nc3ccc(N4CCN(C)CC4)cc3)nc2n1-c1cccc(C(C)(C)O)n1 [AZD1775] (first compound max 1 µM, partner max 1 µM) | SK-PN-DW (Other Solid Carcinomas) | Bliss excess | 0.0431 |
